Some sequences, each annotated with its measured Kd.
# Target System: HLA-A*02:03
# Experiment Notes: IEDB peptide-MHC binding, purified MHC/competitive/radioactivity; filed as Kd, often an IC50 or EC50 that approximates it; bounds were set here for any values at or beyond the usual limits of such assays
# Test Parameters: source organism: Mammarenavirus whitewaterense
Provide the reading as a plain figure in µM.

Task item: Lab request: please report Kd under test system HLA-A*02:03 for `FSAVISGSV`
Reply: 14.1

Task item: Lab request: please report Kd under test system HLA-A*02:03 for `KTVAGSFAS`
Reply: 3.81

###

# Target System: HLA-A*33:01
# Experiment Notes: IEDB peptide-MHC binding, purified MHC/competitive/radioactivity; filed as Kd, often an IC50 or EC50 that approximates it; bounds were set here for any values at or beyond the usual limits of such assays
# Test Parameters: source organism: Mammarenavirus machupoense
Parameter: Kd

Look over these answered cases.
| Record Sequence | Experimental Result |
| --- | --- |
| SSVSVLMKEH | ≥ 70 µM |
| EKFGHFCKYH | ≥ 70 µM |

Task item: So what does the record say about Kd for `LNNSFYYMR` ?
Reply: ≥ 21.7 µM
